Data provenance is the supplement of paper PMC10567573.

B1: ZNF511 (parent)
chain: FDALDDYEHHYHTLHGNVCSFCKR

variants of: B1; test: protein stability index of a GFP-peptide fusion (GPS, HEK-293T) (PSI 1-6); higher = more stable; settings: c terminus: a fixed tail appended;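 also: lentivirally expressed fusions sorted by FACS into six bins by GFP to DsRed ratio, PSI derived from sequencing read proportions per bin multiplied by bin number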
attribute measured: protein stability index
Response field accepts a number only; no unit should be typed.

Bench note: what protein stability index did V18M show? 3.68

Now give it for D5N too. 3.98

Now give it for D2F too. 2.48

Now give it for E8I too. 2.51

Now give it for F1P too. 4.04

Now give it for L14K too. 3.54

Now give it for A3R too. 3.81

Now give it for H12V too. 3.27

Now give it for D2N too. 3.06

Now give it for H10W too. 3.04

Now give it for C19L too. 3.71

Now give it for A3V too. 3.59

Now give it for D5T too. 3.7

Now give it for C19Y too. 2.2

Now give it for G16R too. 3.47

Now give it for D5S too. 3.24

Now give it for F1N too. 4.75

Now give it for C19P too. 3.1

Now give it for C19M too. 2.63

Now give it for F1T too. 4.28

Now give it for T13W too. 2.78

Now give it for R24Q too. 4.25

Now give it for C19K too. 3.27

Now give it for K23I too. 2.89

Now give it for H9D too. 3.69

Now give it for F1R too. 5.08

Now give it for C19I too. 2.66

Now give it for F21A too. 4.3

Now give it for Y7R too. 4.23

Now give it for H15Q too. 3.96

Now give it for K23R too. 4.04

Now give it for D2P too. 3.11

Now give it for C22R too. 2.73

Now give it for Y7H too. 4.43

Now give it for F21N too. 4.15

Now give it for N17F too. 3.1

Now give it for D6L too. 4.68
